Data provenance is patent US10392368B2.

measuredOn: JAK3 (Homo sapiens, UniProt P52333)
Sequence (P52333 whole entry): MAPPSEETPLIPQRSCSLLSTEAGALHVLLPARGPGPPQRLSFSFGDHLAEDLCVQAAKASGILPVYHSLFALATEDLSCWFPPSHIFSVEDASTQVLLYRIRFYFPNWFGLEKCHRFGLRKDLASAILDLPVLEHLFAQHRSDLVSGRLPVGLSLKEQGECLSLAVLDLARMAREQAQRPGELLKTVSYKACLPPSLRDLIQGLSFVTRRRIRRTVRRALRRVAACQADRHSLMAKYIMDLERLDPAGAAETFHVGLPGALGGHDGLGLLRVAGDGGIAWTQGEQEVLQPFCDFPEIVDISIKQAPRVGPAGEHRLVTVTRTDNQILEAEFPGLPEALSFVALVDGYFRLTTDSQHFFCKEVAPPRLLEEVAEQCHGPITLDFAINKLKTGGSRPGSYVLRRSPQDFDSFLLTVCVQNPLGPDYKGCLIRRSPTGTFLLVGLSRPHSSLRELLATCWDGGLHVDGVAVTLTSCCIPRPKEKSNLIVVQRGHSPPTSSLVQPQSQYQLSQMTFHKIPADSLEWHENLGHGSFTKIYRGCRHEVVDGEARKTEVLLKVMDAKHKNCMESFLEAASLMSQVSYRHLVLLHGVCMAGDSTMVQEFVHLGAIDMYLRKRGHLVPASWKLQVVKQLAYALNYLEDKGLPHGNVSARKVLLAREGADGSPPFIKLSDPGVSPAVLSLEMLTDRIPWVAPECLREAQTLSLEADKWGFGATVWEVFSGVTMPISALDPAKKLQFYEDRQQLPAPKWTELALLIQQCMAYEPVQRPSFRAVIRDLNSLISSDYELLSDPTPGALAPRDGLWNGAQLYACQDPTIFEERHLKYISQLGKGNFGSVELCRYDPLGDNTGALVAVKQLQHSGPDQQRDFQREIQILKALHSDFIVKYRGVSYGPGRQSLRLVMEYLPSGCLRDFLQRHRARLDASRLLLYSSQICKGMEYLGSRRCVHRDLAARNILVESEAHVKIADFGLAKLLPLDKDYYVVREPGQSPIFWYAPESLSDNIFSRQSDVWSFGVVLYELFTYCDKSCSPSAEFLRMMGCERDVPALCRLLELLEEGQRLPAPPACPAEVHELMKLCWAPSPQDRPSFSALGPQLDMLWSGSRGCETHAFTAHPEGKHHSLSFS
methodSummary: Biochemical JAK3 kinase assay (LanthaScreen)
Design: GST; purchased Life Technologies
experimentalSetup: read-out: JAK 3 (pKi) (converted)
measurementType: Ki

compound | measuredOn | val
CN(C)C/C=C/C(=O)N1CCC(COc2cc(-c3ccc(O)cc3)cc3[nH]ncc23)CC1 [Compound 12-26] | JAK3 (Homo sapiens, UniProt P52333) | 0.1 to 1 nM
O=C(/C=C/CN1CCOCC1)N1CC(COc2cc(-c3ccc(O)cc3)cc3[nH]ncc23)C1 [Compound 3-129] | JAK3 (Homo sapiens, UniProt P52333) | 0.1 to 1 nM
C=CC(=O)N1CC[C@H](Oc2nc(-c3ccc(O)cc3)cc3[nH]ncc23)C1 [Compound 1-8] | JAK3 (Homo sapiens, UniProt P52333) | 0.1 to 1 nM
C=CC(=O)N1CC(C#N)(COc2nc(-c3ccc(O)c(Cl)c3)nc3[nH]ncc23)C1 [Compound 3-109] | JAK3 (Homo sapiens, UniProt P52333) | 0.1 to 1 nM
C=CC(=O)N1CC[C@H](Oc2cc(-c3ccc(O)c(F)c3)cc3[nH]ncc23)C1 [Compound 1-5] | JAK3 (Homo sapiens, UniProt P52333) | < 0.1 nM
CN(C)C/C=C/C(=O)N1CC[C@@H](Sc2cc(-c3ccc(O)cc3)cc3[nH]ncc23)C1 [Compound 12-3] | JAK3 (Homo sapiens, UniProt P52333) | 0.1 to 1 nM
CN(C)C/C=C/C(=O)N1CCC(Sc2cc(-c3ccc(O)cc3)cc3[nH]ncc23)CC1 [Compound 12-5] | JAK3 (Homo sapiens, UniProt P52333) | 0.1 to 1 nM
CC(C)N(C)C/C=C/C(=O)N1CC(COc2cc(-c3ccc(O)cc3)cc3[nH]ncc23)C1 [Compound 3-113] | JAK3 (Homo sapiens, UniProt P52333) | < 0.1 nM
C=CC(=O)N1CC(Sc2cc(-c3ccc(O)cc3)cc3[nH]ncc23)C1 [Compound 12-35] | JAK3 (Homo sapiens, UniProt P52333) | 0.1 to 1 nM
CN(C)C/C=C/C(=O)N1CC[C@@H](COc2cc(-c3ccc(O)cc3)cc3[nH]ncc23)C1 [Compound 12-19] | JAK3 (Homo sapiens, UniProt P52333) | < 0.1 nM
C[C@@H]1C[C@H](Oc2cc(-c3ccc(O)cc3)cc3[nH]ncc23)CCN1C(=O)/C=C/CN(C)C [Compound 12-28] | JAK3 (Homo sapiens, UniProt P52333) | < 0.1 nM
C=CC(=O)N1CC[C@H](Oc2cc(-c3ccc(O)cc3)cc3[nH]nc(C#N)c23)C1 [Compound 1-45] | JAK3 (Homo sapiens, UniProt P52333) | < 0.1 nM
C=CC(=O)N1CC[C@H](Oc2cc(-c3ccc(O)cc3)cc3[nH]nc(SC)c23)C1 [Compound 1-39] | JAK3 (Homo sapiens, UniProt P52333) | 0.1 to 1 nM
CN(C)C/C=C/C(=O)N1CCC(C)(Oc2cc(-c3ccc(O)cc3)cc3[nH]ncc23)CC1 [Compound 9] | JAK3 (Homo sapiens, UniProt P52333) | 0.1 to 1 nM
C=CC(=O)N1CCC(C#N)(C(=O)Nc2cc(-c3ccc(O)cc3)cc3[nH]ncc23)CC1 [Compound 12-41] | JAK3 (Homo sapiens, UniProt P52333) | 0.1 to 1 nM
C=CC(=O)N1CC[C@@H](Nc2cc(-c3ccc(O)cc3)cc3[nH]ncc23)C1 [Compound 12-18] | JAK3 (Homo sapiens, UniProt P52333) | < 0.1 nM
CN(C)C/C=C/C(=O)N1CC(COc2cc(-c3ccc(O)cc3)cc3[nH]nc(C(F)(F)F)c23)C1 [Compound 18-12] | JAK3 (Homo sapiens, UniProt P52333) | 0.1 to 1 nM
C=C(CN(C)C)C(=O)N1CC[C@H](Oc2cc(-c3ccc(O)cc3)cc3[nH]ncc23)C1 [Compound 16] | JAK3 (Homo sapiens, UniProt P52333) | 0.1 to 1 nM
C=CC(=O)N1CC[C@H](Oc2cc(-c3ccc(O)c(F)c3Cl)cc3[nH]ncc23)C1 [Compound 1-15] | JAK3 (Homo sapiens, UniProt P52333) | < 0.1 nM
C=CC(=O)N1CC[C@H](Oc2cc(-c3ccc(O)cc3)cc3[nH]ncc23)C[C@H]1C [Compound 12-32] | JAK3 (Homo sapiens, UniProt P52333) | < 0.1 nM
C=CC(=O)N1CC(COc2cc(-c3ccc(O)cc3)cc3[nH]nc(C)c23)C1 [Compound 18-5] | JAK3 (Homo sapiens, UniProt P52333) | 0.1 to 1 nM
C=CC(=O)N1C[C@H](C(=O)Nc2cc(-c3ccc(O)cc3)cc3[nH]ncc23)OC[C@@H]1C [Compound 12-60] | JAK3 (Homo sapiens, UniProt P52333) | 0.1 to 1 nM
C=CC(=O)N1CC[C@H](Oc2cc(-c3cc(F)c(O)cc3C)cc3[nH]ncc23)C1 [Compound 1-16] | JAK3 (Homo sapiens, UniProt P52333) | 0.1 to 1 nM
C=CC(=O)N1CC[C@H](Oc2cc(-c3ccc(O)cc3)cc3[nH]nc(OC)c23)C1 [Compound 1-44] | JAK3 (Homo sapiens, UniProt P52333) | < 0.1 nM
C=CC(=O)N1CC(C#N)(COc2nc(-c3ccc(O)cc3)nc3[nH]ncc23)C1 [Compound 3-104] | JAK3 (Homo sapiens, UniProt P52333) | < 0.1 nM
CN(C)C/C=C/C(=O)N1CCC(C)(Oc2cc(-c3ccc(O)c(Cl)c3)cc3[nH]ncc23)CC1 [Compound 6-4] | JAK3 (Homo sapiens, UniProt P52333) | < 0.1 nM
CN(C)C/C=C/C(=O)N1CC(OCc2cc(-c3ccc(O)cc3)cc3[nH]ncc23)C1 [Compound 12-38] | JAK3 (Homo sapiens, UniProt P52333) | < 0.1 nM
CN(C)C/C=C/C(=O)N1CC(F)(COc2nc(-c3ccc(O)c(Cl)c3)cc3[nH]ncc23)C1 [Compound 3-91] | JAK3 (Homo sapiens, UniProt P52333) | < 0.1 nM
CN(C)C/C=C/C(=O)N1CC(COc2cc(-c3cc(F)c(O)cc3F)cc3[nH]ncc23)C1 [Compound 18-3] | JAK3 (Homo sapiens, UniProt P52333) | < 0.1 nM
CN(C)C/C=C/C(=O)N1CCC(Oc2cc(-c3ccc(O)c(Cl)c3)cc3[nH]ncc23)CC1 [Compound 6-19] | JAK3 (Homo sapiens, UniProt P52333) | 0.1 to 1 nM
COC1(C)CN(C/C=C/C(=O)N2CC(COc3cc(-c4ccc(O)cc4)cc4[nH]ncc34)C2)C1 [Compound 3-133] | JAK3 (Homo sapiens, UniProt P52333) | < 0.1 nM

* * *

Reported Ki values for a set of molecules
measuredOn: JAK1 (Homo sapiens)
Construct: GST; purchased Life Technologies
Sequence (P23458 whole entry): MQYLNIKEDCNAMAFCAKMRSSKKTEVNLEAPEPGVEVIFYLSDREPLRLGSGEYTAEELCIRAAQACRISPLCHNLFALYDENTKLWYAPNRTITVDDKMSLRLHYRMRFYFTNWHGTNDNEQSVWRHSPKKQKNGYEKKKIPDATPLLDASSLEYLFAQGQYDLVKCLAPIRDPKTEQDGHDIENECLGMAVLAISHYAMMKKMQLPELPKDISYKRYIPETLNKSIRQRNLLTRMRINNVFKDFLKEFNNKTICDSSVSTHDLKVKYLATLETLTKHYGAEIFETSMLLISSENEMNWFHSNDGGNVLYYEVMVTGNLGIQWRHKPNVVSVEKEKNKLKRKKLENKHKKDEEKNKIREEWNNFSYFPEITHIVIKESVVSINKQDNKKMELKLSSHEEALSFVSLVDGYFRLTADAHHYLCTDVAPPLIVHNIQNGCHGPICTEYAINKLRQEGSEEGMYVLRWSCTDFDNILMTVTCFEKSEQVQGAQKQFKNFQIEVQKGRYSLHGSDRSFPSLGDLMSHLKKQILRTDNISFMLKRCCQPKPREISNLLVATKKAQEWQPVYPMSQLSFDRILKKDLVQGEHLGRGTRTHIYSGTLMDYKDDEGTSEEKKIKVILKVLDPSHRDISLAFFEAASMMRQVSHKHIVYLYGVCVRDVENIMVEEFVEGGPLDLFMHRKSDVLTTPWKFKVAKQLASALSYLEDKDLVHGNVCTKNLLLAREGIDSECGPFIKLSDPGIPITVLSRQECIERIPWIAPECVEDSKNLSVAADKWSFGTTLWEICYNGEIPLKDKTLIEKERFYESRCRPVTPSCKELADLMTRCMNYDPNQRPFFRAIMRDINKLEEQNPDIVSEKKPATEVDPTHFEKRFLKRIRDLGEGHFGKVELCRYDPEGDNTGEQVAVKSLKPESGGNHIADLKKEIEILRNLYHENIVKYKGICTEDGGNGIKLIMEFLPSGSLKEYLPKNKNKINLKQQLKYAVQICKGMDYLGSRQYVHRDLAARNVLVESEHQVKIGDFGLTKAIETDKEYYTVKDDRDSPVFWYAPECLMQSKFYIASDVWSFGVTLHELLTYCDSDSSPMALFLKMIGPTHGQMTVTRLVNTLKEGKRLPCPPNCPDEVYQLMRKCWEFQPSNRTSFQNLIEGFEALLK
methodSummary: Biochemical JAK1 kinase assay (LanthaScreen)
experimentalSetup: read-out: JAK 1 (pKi) (converted)

molecule | Ki
C=CC(=O)N1CC[C@H](Oc2cc(-c3cc(F)c(O)c(F)c3)cc3[nH]ncc23)C1 | > 100 nM
C=CC(=O)N1CC[C@H](Oc2cc(-c3ccc(O)c(F)c3)cc3[nH]nc(C)c23)C1 | 10 to 100 nM
C=CC(=O)N1CCC(Oc2cc(-c3ccc(O)c(F)c3)nc3[nH]ncc23)CC1 | > 100 nM
C=CC(=O)N1CC[C@H](Oc2cc(-c3ccc(O)cc3)cc3[nH]nc(SC)c23)C1 | > 100 nM
C=CC(=O)N1CCSC(C(=O)Nc2cc(-c3ccc(O)cc3)cc3[nH]ncc23)C1 (stereo not shown) | > 100 nM
C=CC(=O)N1CC[C@H](Oc2cc(-c3ccc(O)c(Cl)c3)nc3[nH]nc(C)c23)C1 | > 100 nM
C=CC(=O)N1CC(C#N)(COc2nc(-c3ccc(O)cc3)cc3[nH]ncc23)C1 | > 100 nM
C=CC(=O)N1CCC[C@H](Sc2cc(-c3ccc(O)cc3)cc3[nH]ncc23)C1 | 10 to 100 nM
C=CC(=O)N1C[C@@H](C)O[C@@H](C(=O)Nc2cc(-c3ccc(O)cc3)cc3[nH]ncc23)C1 | > 100 nM
CN1CCC[C@@H]1/C=C/C(=O)N1CC(COc2cc(-c3ccc(O)cc3)cc3[nH]ncc23)C1 | > 100 nM
C=CC(=O)N1CC(CC)(COc2cc(-c3ccc(O)cc3)nc3[nH]ncc23)C1 | > 100 nM
C=CC(=O)N1CC(COc2cc(-c3ccc(O)cc3)nc3[nH]ncc23)C1 | > 100 nM
C=CC(=O)N1CC[C@H](Oc2cc(-c3ccc(O)cc3)cc3[nH]nc(N(C)C)c23)C1 | > 100 nM
CN(C)C/C=C/C(=O)N1CCC(Oc2cc(-c3ccc(O)c(Cl)c3)cc3[nH]ncc23)CC1 | 10 to 100 nM
CN(C)C/C=C/C(=O)N1CC(F)(C2(Oc3cc(-c4ccc(O)cc4)cc4[nH]ncc34)CC2)C1 | 10 to 100 nM
C=CC(=O)N1CC[C@H](Oc2cc(-c3ccc(O)c(F)c3)nc3[nH]nc(C)c23)C1 | > 100 nM
C=CC(=O)N1CC(COc2cc(-c3ccc(O)c(Cl)c3)cc3[nH]nc(C)c23)C1 | 10 to 100 nM
C=CC(=O)N1CCO[C@@H](C(=O)Nc2cc(-c3ccc(O)cc3)cc3[nH]ncc23)C1 | > 100 nM
C=CC(=O)N1CC(OCc2cc(-c3ccc(O)cc3)cc3[nH]ncc23)C1 | > 100 nM
C=CC(=O)N1CCC(N(C)c2cc(-c3ccc(O)c(F)c3)cc3[nH]ncc23)CC1 | > 100 nM
C=CC(=O)N1CC(COc2cc(-c3ccc(O)c(F)c3)nc3[nH]ncc23)C1 | > 100 nM
CN(C)C/C=C/C(=O)N1CC[C@@H]1COc1cc(-c2ccc(O)cc2)cc2[nH]ncc12 | > 100 nM
C=CC(=O)N1CC(COc2cc(-c3ccc(O)c(Cl)c3)cc3[nH]ncc23)C1 | > 100 nM
C=CC(=O)N1CCC(Oc2nc(-c3ccc(O)c(F)c3)nc3[nH]ncc23)CC1 | > 100 nM
C=CC(=O)N1CC[C@H](Oc2nc(-c3ccc(O)c(F)c3)nc3[nH]nc(C)c23)C1 | > 100 nM
CN(C)C/C=C/C(=O)N1CC(S(=O)(=O)c2cc(-c3ccc(O)cc3)cc3[nH]ncc23)C1 | > 100 nM
C=CC(=O)N1CC[C@@H](Nc2cc(-c3ccc(O)cc3)cc3[nH]ncc23)[C@H](C)C1 | 10 to 100 nM
C=CC(=O)N1CC(COc2cc(-c3ccc(O)c(F)c3)cc3[nH]ncc23)C1 | > 100 nM
C=CC(=O)N1C[C@H](C(=O)Nc2cc(-c3ccc(O)cc3)cc3[nH]ncc23)OC[C@@H]1C | > 100 nM
CN(C/C=C/C(=O)N1CC(COc2cc(-c3ccc(O)cc3)cc3[nH]ncc23)C1)C(C)(C)C | > 100 nM
O=C(/C=C/CN1CCCC1)N1CC(COc2cc(-c3ccc(O)cc3)cc3[nH]ncc23)C1 | > 100 nM
